System: UACC-62
testDescription: NCI tumour cell line growth inhibition, 48 h
Calls of active or inactive are those of the source. Rule as the data show it: active = GI50 up to about 1.1 µM and inactive = higher.
resultType: GI50

Examples with their reported GI50 follow.
- compound: "Oc1cc2c(cc1O)-c1[nH]ncc1CC2"
  assayTarget: "UACC-62"
  dataValue: "27.8 µM (inactive)"
- compound: "CC1(C)CC2=NOS3=C2C(=NO3)C1c1ccccn1 (stereo not drawn)"
  assayTarget: "UACC-62"
  dataValue: "44.1 µM (inactive)"
- compound: "O=C1Nc2ccccc2Nc2ccncc21"
  assayTarget: "UACC-62"
  dataValue: "> 100 µM (inactive)"
- compound: "OCc1ccn2c1[C@@H](O)CC2"
  assayTarget: "UACC-62"
  dataValue: "> 100 µM (inactive)"
- compound: "Cc1c(Cl)cccc1NC(=O)C(=O)c1c(O)c2ccc(O)cc2oc1=O"
  assayTarget: "UACC-62"
  dataValue: "> 100 µM (inactive)"

The recorded GI50 for entry `CCOC(=O)C(C)(c1cn(C)c2ccccc12)c1cn(C)c2ccccc12` equals 87.9 µM (inactive)

Kindly note the recorded GI50 for `CCCCCCCCCCCCCCCC/C(C(=O)OC)=C(/O)C(=O)OCC` , which is > 100 µM (inactive)

The measured GI50 associated with `CCOC(=O)C1=CN2C(=N[C@H]3CCCC[C@@H]32)NC1=O` reads > 100 µM (inactive)

Reported GI50 of `O=C(O)c1ccc(/N=C(\C(=N\c2ccc(C(=O)O)cc2)c2ccccc2)c2ccccc2)cc1` : > 100 µM (inactive)

Just so you know, measured GI50 for `S=c1nc(Nc2ccc(Br)cc2)c2c3c(sc2[nH]1)CN(N1CCc2c(sc4[nH]c(=S)nc(Nc5ccc(Br)cc5)c24)C1)CC3` came out at 15.1 µM (inactive)

Per the records, this compound ( `CCOC(=O)N1CCc2cc(OC)c(OC)c3c2c1cc1cc(OC)c(OC)cc13` ) has GI50 equal to 0.94 µM (active)

Memo: `Nc1nc(Cc2ccccc2)nc(Cc2ccccc2)c1-c1ccccc1` , reported GI50: 18 µM (inactive)

Looking up `O=C1C(c2ccccc2)=C(c2ccccc2)C(c2ccc(Sc3ccc(C4=C(c5ccccc5)C(=O)C(c5ccccc5)=C4c4ccccc4)cc3)cc2)=C1c1ccccc1` , I found its GI50 recorded as > 100 µM (inactive)

Input `Cc1nc(Nc2nc3ccccc3[nH]2)[nH]c(=O)c1CCO` . Output GI50: 68.9 µM (inactive)
